System: HepG2 cells
Method: Cell growth under high-density conditions (SRB assay), delayed cell death (DCD)
Type: cell-based, human
Conditions used: Homo sapiens; Table 5; high density HepG2 cultures
Property name: minimal effective concentration (µM)

>>> measured("O=C(NCCCCCCNC(=O)NCc1cccnc1)NCCC(c1ccccc1)c1ccccc1")
1
>>> measured("O=C(NCCCCCCNC(=O)N1CCN(C(c2ccccc2)c2ccccc2)CC1)NCc1cccnc1")
0.03
>>> measured("O=C(/C=C/c1cccnc1)NCCCCCCCC(c1ccccc1)c1ccccc1")
0.03
>>> measured("O=C(NCCCCC1CCN(S(=O)(=O)c2ccc3ccccc3c2)CC1)Nc1cccnc1")
3
>>> measured("S=C(NCCCCC=C(c1ccccc1)c1ccccc1)N/N=C/c1cccnc1")
0.3
>>> measured("O=C(CCCCCN1CCN(C(c2ccccc2)c2ccccc2)CC1)NCCc1cccnc1")
3
>>> measured("O=C(NCCCCC1CCN(C(c2ccccc2)c2ccccc2)CC1)Nc1cccnc1")
1
>>> measured("O=C(NCCCCC1CCN(C(=O)N2c3ccccc3CCc3ccccc32)CC1)Nc1cccnc1")
0.01
>>> measured("S=C(NCCCCCC1CCN(C(c2ccccc2)c2ccccc2)CC1)Nc1cccnc1")
0.3

// provenance: patent US20020160968A1
